Target: T1, ToPif1 (wild type) (Thermus oshimai, UniProt K7RJ88 64-507)
T1 sequence: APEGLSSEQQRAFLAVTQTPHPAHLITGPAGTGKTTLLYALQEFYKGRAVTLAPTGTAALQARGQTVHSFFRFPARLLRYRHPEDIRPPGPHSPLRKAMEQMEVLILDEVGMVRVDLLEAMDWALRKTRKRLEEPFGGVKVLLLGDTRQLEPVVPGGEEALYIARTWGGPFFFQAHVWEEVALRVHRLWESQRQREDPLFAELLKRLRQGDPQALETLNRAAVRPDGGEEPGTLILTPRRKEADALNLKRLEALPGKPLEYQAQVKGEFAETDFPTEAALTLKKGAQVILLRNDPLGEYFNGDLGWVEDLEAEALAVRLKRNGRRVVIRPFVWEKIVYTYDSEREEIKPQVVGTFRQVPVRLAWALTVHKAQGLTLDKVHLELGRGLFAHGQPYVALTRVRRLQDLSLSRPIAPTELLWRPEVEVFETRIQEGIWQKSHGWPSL
Test: fluorescence anisotropy
Reported metric: Kd

*Q* Query (binder): TTTTTTTTTTTT (ssDNA) [T12] ; field requested: Kd
*A* 26.5 nM
